molecules and their reported melting point

Query (molecule): CCOC(=O)c1ccc(-c2ccc(-c3ccc(O)cc3)c(-c3ccc4c(c3)C(C)(C)CCC4(C)C)c2)cc1 ; field requested: melting point
177 to 179 °C

Query (molecule): O=C(O)c1csnc1-c1cccc(Cl)c1 ; field requested: melting point
215 to 216 °C

Query (molecule): O=C(C(CCCl)c1ccccc1)N1CCCCCC1 (centres undefined) ; field requested: melting point
50 to 53 °C

Query (molecule): N#CC(Cc1cccc(F)c1)n1nnc2cc3c(cc2c1=O)OC1CCCN1C3=O (centres undefined) ; field requested: melting point
182 to 184 °C

Query (molecule): CN(Cc1ccc(NC(=O)C2=Cc3cc(-c4ccc(S(C)(=O)=O)cc4)ccc3OCC2)cc1)C1CCOCC1 ; field requested: melting point
233 to 235 °C
